Molecular target: UniProt P41180
Test: Assessment of CaSR agonistic activity (Ca2+ fluorescence, FLIPR, hCaSR-transfected 293E cells)
Conditions: human CaSR-expressing 293E cells, 1.5 mM CaCl2 assay buffer, 3-minute change in fluorescence intensity
Procedure: CaSR gene was prepared according to the method described in Example 1 of WO07/55393. The resulting recombinant plasmid was used to generate human CaSR-expressing plasmid hCaSR/pcDNA3.1. […] The difference between maximum and minimum fluorescence intensities before and after compound addition (RFU (Max−Min)) was determined by FLIPR automatic calculation. […]
Structures can show the parent of a compound that is named as a salt.
MEASURE: EC50 (nM)

Please review the following examples before continuing.
N[C@@H](CCC(=O)Nc1cc(Cl)cc(S(=O)(=O)O)c1O)C(=O)NO [Example 41] : 39
N#CCC[C@H](N)COC(=O)Nc1cc(Cl)cc(S(=O)(=O)O)c1O [Example 12] : 1100

I: N[C@@H](CCC(=O)Nc1cccc(S(=O)(=O)O)n1)C(=O)O [Example 42, trifluoroacetic acid salt]
II: N[C@@H](CNC(=O)Nc1cccc(S(=O)(=O)O)c1)C(=O)O [Example 77]
III: COc1ccc(NC(=O)NC[C@H](N)C(=O)O)cc1S(=O)(=O)O [Example 81]
Incoming: Endpoint returns the given compounds ordered by ascending EC50. Form field (ranking): labels in requested order.
Outgoing: II, III, I
(II: 18 nM, III: 3700 nM, I: 13000 nM)

###

Target: human CaSR (Homo sapiens, UniProt P41180)
Sequence (P41180 20-1078): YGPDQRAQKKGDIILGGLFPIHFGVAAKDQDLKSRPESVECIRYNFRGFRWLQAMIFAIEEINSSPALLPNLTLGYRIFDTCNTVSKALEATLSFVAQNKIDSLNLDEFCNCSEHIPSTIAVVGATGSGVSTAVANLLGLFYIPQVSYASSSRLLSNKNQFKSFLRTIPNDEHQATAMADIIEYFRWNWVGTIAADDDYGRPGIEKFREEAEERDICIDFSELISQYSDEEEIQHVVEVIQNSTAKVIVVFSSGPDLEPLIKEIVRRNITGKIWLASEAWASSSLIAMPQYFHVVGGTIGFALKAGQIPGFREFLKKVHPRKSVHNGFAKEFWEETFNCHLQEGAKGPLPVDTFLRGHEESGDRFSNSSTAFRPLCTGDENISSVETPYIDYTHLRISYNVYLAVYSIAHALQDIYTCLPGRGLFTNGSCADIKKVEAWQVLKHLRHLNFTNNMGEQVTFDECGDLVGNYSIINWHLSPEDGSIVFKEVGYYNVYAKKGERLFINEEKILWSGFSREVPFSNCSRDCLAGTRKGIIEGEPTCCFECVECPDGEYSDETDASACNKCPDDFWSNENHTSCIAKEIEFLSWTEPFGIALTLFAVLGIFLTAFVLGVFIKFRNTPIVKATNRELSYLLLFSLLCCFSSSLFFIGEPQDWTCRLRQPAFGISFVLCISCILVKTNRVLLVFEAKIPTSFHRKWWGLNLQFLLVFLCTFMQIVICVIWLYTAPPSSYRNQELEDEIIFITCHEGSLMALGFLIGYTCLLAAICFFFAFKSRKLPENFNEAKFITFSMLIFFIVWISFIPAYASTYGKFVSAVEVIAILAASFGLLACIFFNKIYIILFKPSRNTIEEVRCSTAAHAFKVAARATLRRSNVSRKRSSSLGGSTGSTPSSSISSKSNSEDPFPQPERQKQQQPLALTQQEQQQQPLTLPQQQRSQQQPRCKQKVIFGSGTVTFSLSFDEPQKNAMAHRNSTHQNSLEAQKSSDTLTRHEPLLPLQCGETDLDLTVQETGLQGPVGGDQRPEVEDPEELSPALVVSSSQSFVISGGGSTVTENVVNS
Assay: Assessment of CaSR agonistic activity (Ca2+ fluorescence, FLIPR, hCaSR-transfected 293E cells)
Settings: human CaSR-expressing 293E cells, 1.5 mM CaCl2 assay buffer, 3-minute change in fluorescence intensity
pEC50: −log10 of the molar value.
MEASURE: pEC50

N[C@@H](CNC(=O)Nc1cc(C(=O)O)ccc1Cl)C(=O)O [Example 88] : 5.64

I: CN[C@@H](CNC(=O)Nc1cc(Cl)c(C)c(S(=O)(=O)O)c1)C(=O)O [Example 79]
II: N[C@@H](CCC(=O)Nc1cc(Cl)cc(S(=O)(=O)O)c1O)C(=O)NCCc1cccc(Cl)c1 [Example 32]
III: CC(=O)Nc1cc(S(=O)(=O)O)cc(NC(=O)NC[C@H](N)C(=O)O)c1O [Example 83]
Incoming: # sort list by recorded pEC50, greatest to least List the labels, following the order given in the request.
Outgoing: I, II, III

P: N[C@@H](CCC(=O)Nc1cc(Cl)cc(S(=O)(=O)O)c1O)c1nnc(Cc2ccccc2)o1 [Example 16]
Q: COC(=O)[C@@H](N)CNC(=O)Nc1cc(Cl)cc(S(=O)(=O)O)c1O [Example 67]
Incoming: Out of P and Q , name the one with the higher pEC50. Give the chosen item's label as your response.
Outgoing: Q

I: COc1c(NC(=O)NC[C@H](N)C(=O)O)cccc1C(=O)O [Example 100]
II: N[C@@H](CCC(=O)Nc1cc(Cl)cc(S(=O)(=O)O)c1O)C(=O)NS(=O)(=O)c1ccccc1 [Example 62]
III: N[C@@H](CNC(=O)Nc1cccc(C(=O)O)c1O)C(=O)O [Example 90]
IV: Cc1c(Cl)cc(S(=O)(=O)O)cc1NC(=S)NC[C@H](N)C(=O)O [Example 47]
Incoming: Arrange the 4 entries by pEC50 so the values rise. The labels, placed in the requested order, form the answer.
Outgoing: I, II, III, IV

P: N[C@@H](CNC(=O)Nc1cc(C(=O)O)cc([N+](=O)[O-])c1)C(=O)O [Example 92]
Q: COc1cc(NC(=O)NC[C@H](N)C(=O)O)cc(C(=O)O)c1 [Example 101]
Incoming: // compare: P vs Q , metric pEC50, want the smaller Answer by stating the label of the chosen item.
Outgoing: Q
